meta.source: ChEMBL document CHEMBL1201862

test system: HCT-116; experiment: NCI tumour cell line growth inhibition, 48 h
Activity calls are given as the source filed them. Rule as the data show it: active = GI50 up to about 1.1 µM and inactive = higher.
Measured GI50 accompanies every entry in the list below.

Below: 5 compounds and their reported GI50.
Data request, read-out GI50, for COc1ccc2cc3n(c(=O)c2c1)CCc1c-3cc(OC)c(OC)c1OC > 100 µM (inactive)

For the compound O=C1CC(c2cccc(Br)c2)n2cccc21 (stereo unspecified) , what GI50 is on record? > 100 µM (inactive)

Which GI50 value belongs to Oc1c(Br)c(-c2ccccc2)nc2ccccc12 ? 53.3 µM (inactive)

Dear colleague, I am looking for the recorded GI50 of the following compound: Cc1ccc(N2C(=O)C(=O)N(/N=C3\C(=O)Nc4ccccc43)C2=S)cc1 65.8 µM (inactive)

Could you share which GI50 value was measured for O=C(N/C=C1\C(=O)Oc2ccccc2C1=O)Oc1ccccc1 ? 21.4 µM (inactive)

Now, please, on to the next compound.
Find the recorded GI50 belonging to O=C(O)C(CCc1ccccn1)c1ccccc1 (stereo unspecified) and report it. > 100 µM (inactive)

---

system: MDA-N; test: NCI tumour cell line growth inhibition, 48 h
Calls of active or inactive are those of the source. Rule as the data show it: active = GI50 up to about 1.1 µM and inactive = higher.
measure: GI50

Data request, read-out GI50, for CC(=O)OC1COC(Nc2nc(N)n(C)c(=O)c2N=O)C(OC(C)=O)C1OC(C)=O (centres undefined) > 10 µM (inactive)

Others:
Quick one: GI50 for O=C(O)CCSC1=NCCN1 ? > 100 µM (inactive)

Name the recorded GI50 for O=c1cc(N2CCCC2)[nH]c(=O)n1-c1cccc(Cl)c1 . > 100 µM (inactive)

Which GI50 reading was recorded for the molecule COC(=O)/C=C\[C@H]1[C@H](C)N1S(=O)(=O)c1ccc(C)cc1 (some centres undefined) ? > 100 µM (inactive)

Which GI50 value is on record for CCN(CCO)CCNc1ccc(C)c2sc3ccccc3c(=O)c12 ? 1.74 µM (inactive)

I'd like to know its GI50. The molecule in question is CN(C)c1ccc(/C=N/n2c(-c3ccccc3)nc3ccccc3c2=O)cc1 43.1 µM (inactive)

Fill in: GI50 of NC1OC(COC(=O)c2ccccc2)C(O)C(OC(=O)c2ccccc2)C1OC(=O)c1ccccc1 (centres undefined) is ___ 22.3 µM (inactive)

Which GI50 is listed for Cc1cc(=O)oc2c(C3=NN(C=O)C(c4ccccc4)C3)c(O)ccc12 (centres undefined) ? > 54.8 µM (inactive)

Reported GI50 for COC1=CC(=O)C2=C(C1=O)[C@H]1CC[C@]3(C)[C@@H](O)CC[C@H]3[C@@H]1CC2 : what is it? 17.5 µM (inactive)

---

test system: EKVX; test: NCI tumour cell line growth inhibition, 48 h
Calls of active or inactive are those of the source. Rule as the data show it: active = GI50 up to about 1.1 µM and inactive = higher.
Outcome field: choose from 1.0 = active, 0.0 = inactive

A selection of reference data follows.
Could you please tell me the result logged for COc1ccc(C(=O)c2c(C(C(=O)c3ccc(OC)cc3)C(=O)c3ccc(OC)cc3)n(C(=O)c3ccc(OC)cc3)c3ccccc23)cc1 in this assay? 0.0

State the result this test recorded for CCOC(=O)C1CC(O)C(=O)N1C (stereo not given) . 0.0

Which outcome was assigned to C/C(=C1/N=C(c2cc([N+](=O)[O-])ccc2Cl)N(C2=CC=C(Cl)CC2)C1=O)c1cc2ccccc2oc1=O in this test? 0.0

Please share the test call associated with Cc1ncc(CCl)c2c1OC(C)(C)OC2 . 0.0

Which outcome did this test record for the compound COC(=O)C1Cc2c([nH]c3ccccc23)-c2[nH]c3ccccc3c2CC(NC(C)=O)C(=O)NCC(=O)NCC(=O)N1 (stereo not given) ? 0.0

// param item: O=C1CC(c2ccccc2)NCN1 (stereo not given) ; yields the recorded call 0.0

***
// param item: CCc1cc(C)cc2[n+]1CC=C2C.[O-][Cl+3]([O-])([O-])[O-] ; yields the recorded call 0.0

Please let me know the test result on file for COc1cc2ccc(/C=C\[N+](=O)[O-])cc2cc1OC . 0.0

Test call for this compound, please: CCNCCC1(CC)C(=O)NC(=O)NC1=O 0.0
